# assay overview: protein stability index of a GFP-peptide fusion (yeast GPS) (PSI 1-4); higher = more stable; sorted into four equal gates, so the index is relative within each strain
# assay setup: pdr5∆
Outcome: 1 (yes) for protein stability index of at least 2; 0 (no) for anything lower.

>  <item sequence>
LSFIQVRIDLGTIDKLQ [RPO31]

>  <assigned category>
0 (no)

$$$$
>  <item sequence>
AFVPKKRKTNIIMFVGL [SRP54]

>  <assigned category>
1 (yes)

$$$$
>  <item sequence>
PLRENTNVLDVKDKEED [YDL116W/NUP84]

>  <assigned category>
1 (yes)

$$$$

Lookup: Decide: is the reported value of protein stability index for TRKAMLDPLEVHMLDFP [PRP8] equal to or greater than 2?
Found: 1 (yes)

Lookup: Another: NGWEKYLHNVELGEKKN [ISW2]
Found: 0 (no)

Lookup: Another: LHYIPKYNRYEKRHKNV [RPS11A]
Found: 0 (no)

Lookup: Another: NGFAPISEVMEDRNQRI [FAS1]
Found: 1 (yes)

###

# assay overview: protein stability index of a GFP-peptide fusion (yeast GPS) (PSI 1-4); higher = more stable; sorted into four equal gates, so the index is relative within each strain
# assay setup: ubr1∆
Outcome: met for protein stability index of at least 3; not met for anything lower.

Answered cases to consult:
>  <item sequence>
NKDMIKNLVKVLESRVN [CSN12]

>  <assigned category>
not met

$$$$
>  <item sequence>
KEYQCSAVIIDEFKDIT [YIL149C/MLP2]

>  <assigned category>
not met

$$$$
>  <item sequence>
SRQKSGLFDSFTNGVLA [YML031W/NDC1]

>  <assigned category>
not met

$$$$
>  <item sequence>
HKMGVERSSKRLAKKPS [SIR3]

>  <assigned category>
met

$$$$

Lookup: Decide: is the reported value of protein stability index for GCVSYSPAALKQLASLK [YMR153W/NUP53] equal to or greater than 3?
Found: not met

Lookup: Another: NHSLQHQNESSAASIPP [RPN4]
Found: met

Lookup: Another: PAELEGLLDLERVIVVT [FAS2]
Found: not met

###

# assay overview: protein stability index of a GFP-peptide fusion (yeast GPS) (PSI 1-4); higher = more stable; sorted into four equal gates, so the index is relative within each strain
# assay setup: ubr1∆
protein stability index: recorded values

Examples with answers:
>  <item sequence>
ETQLKVVTRSKEAFEEE [SMC1]

>  <protein stability index>
3.39

$$$$
>  <item sequence>
VHVIHFQHADNSSMRYG [AAR2]

>  <protein stability index>
2.53

$$$$
>  <item sequence>
QKKARTILQHLSEAWRC [PRP8]

>  <protein stability index>
2.55

$$$$
>  <item sequence>
KFQGVLESEAQKKATMS [RPC34]

>  <protein stability index>
3.34

$$$$
>  <item sequence>
TYGFSILDIVINNPVNL [FAS1]

>  <protein stability index>
3.02

$$$$

Lookup: Any idea what protein stability index was measured for YISLLKLQGLYENIPIY [YDL116W/NUP84] ?
Found: 1.25

Lookup: Another: SLLSLVGHLSILPQQSK [ECM29]
Found: 1.64

###

# assay overview: protein stability index of a GFP-peptide fusion (yeast GPS) (PSI 1-4); higher = more stable; sorted into four equal gates, so the index is relative within each strain
# assay setup: pdr5∆
Outcome: 1 for protein stability index of at least 3; -1 for anything lower.

>  <item sequence>
TRHQNTIHAKRKIVFRC [RPN4]

>  <assigned category>
-1

$$$$

Then there is this sequence:
Lookup: Decide: is the reported value of protein stability index for LAVCDELGNMTMLITGQ [SIN4] equal to or greater than 3?
Found: -1
